Origin of measurements: patent EP4768499A1

Entries and their Caco2 Papp (10^-6 cm/sec) values follow.
- Test system: Caco-2 cells
- Protocol Summary: Membrane permeability test using Caco-2 cells with preincubation
- Format: in vitro ADME
- Conditions Used: Caco-2 cells, preincubation 20 to 24 hours; apical FaSSIF/HBSS 1% DMSO pH 6.0, basal HBSS 4% BSA pH 7.4; basal sample at 180 minutes
Positions of bridges follow the written chain, without caps; N, C: chain ends. Non-standard residues stand in square brackets, D forms with d. Residues, ends and D or L forms follow the SMILES beside them. *: point of attachment. NMeF = CN[C@@H](Cc1ccccc1)C(=O)O; NMeL = CN[C@@H](CC(C)C)C(=O)O; dNMeV = CN[C@@H](C(=O)O)C(C)C; NMeV = CN[C@H](C(=O)O)C(C)C; NMeA = CN[C@@H](C)C(=O)O; Piperidide = C1CCN(*)CC1; Abu = CC[C@H](N)C(=O)O

# molecule CC[C@@H]1NC(=O)[C@H](C(C)C)N(C)C(=O)[C@H](CC(C)C)NC(=O)[C@H](Cc2ccccc2)N(C)C(=O)[C@@H](C(C)C)N(C)C(=O)C[C@@H](C(=O)N2CCCCC2)NC(=O)[C@H](CC(C)C)NC(=O)[C@H](C(C)C)N(C)C(=O)[C@H](Cc2ccccc2)N(C)C(=O)[C@H](CC(C)C)NC(=O)[C@H](CC(C)C)N(C)C(=O)[C@H](C)N(C)C(=O)[C@H]([C@@H](C)O)NC(=O)[C@H](CC(C)C)N(C)C1=O [pd033] ([dNMeV][NMeF]L[NMeV][Abu][NMeL]T[NMeA][NMeL]L[NMeF][NMeV]LD-Piperidide; lactam N-14) ; its Caco2 Papp (10^-6 cm/sec) = 0.03 10^-6 cm/sec

###

Entries and their Papp A→B values follow.
- Protocol Summary: Membrane permeability test using Caco-2 cells with preincubation
- Format: in vitro ADME
- Conditions Used: Caco-2; preincubation 20 to 24 hours; Apical FaSSIF/HBSS pH 6.0, Basal HBSS 4% BSA pH 7.4; 180 minutes; read-out: Caco2 Papp
Positions of bridges follow the written chain, without caps; N, C: chain ends. Non-standard residues stand in square brackets, D forms with d. Residues, ends and D or L forms follow the SMILES beside them. *: point of attachment. NMeF = CN[C@@H](Cc1ccccc1)C(=O)O; NMeT = CN[C@H](C(=O)O)[C@@H](C)O; NMeD = CN[C@@H](CC(=O)O)C(=O)O; NMeL = CN[C@@H](CC(C)C)C(=O)O; NMeV = CN[C@H](C(=O)O)C(C)C; NMeA = CN[C@@H](C)C(=O)O; Piperidide = C1CCN(*)CC1; Abu = CC[C@H](N)C(=O)O; Sar = CNCC(=O)O
Could you give me the number in ×10⁻⁶ cm/s? Just the number is fine.

Compound	Unit Info	Papp A→B
CC(C)C[C@@H]1NC(=O)[C@H](Cc2ccccc2)N(C)C(=O)[C@H](C)N(C)C(=O)[C@H](CC(C)C)N(C)C(=O)CN(C)C(=O)[C@H](C(C)C)N(C)C(=O)[C@H](CC(C)C)N(C)C(=O)[C@H](C(C)C)N(C)C(=O)[C@H](C(C)C)NC(=O)[C@H](CC(C)C)N(C)C(=O)[C@@H](C(C)C)NC(=O)C[C@@H](C(=O)N2CCCCC2)N(C)C(=O)[C@H](C)N(C)C1=O [pd157] ([dV][NMeL]V[NMeV][NMeL][NMeV][Sar][NMeL][NMeA][NMeF]L[NMeA][NMeD]-Piperidide; lactam N-13)	×10⁻⁶ cm/s	1.42

Okay, now this compound:
Quick note, Papp A→B for CC[C@@H]1NC(=O)[C@H](C)N(C)C(=O)[C@H](CC(C)C)N(C)C(=O)[C@H]([C@@H](C)O)N(C)C(=O)[C@H](CC(C)C)N(C)C(=O)[C@H](C)NC(=O)[C@H](Cc2ccccc2)N(C)C(=O)CN(C)C(=O)C[C@@H](C(=O)N2CCCCC2)NC(=O)[C@H](C(C)C)N(C)C(=O)[C@H](C)NC(=O)[C@@H]2CCCN2C(=O)[C@H](C(C)C)NC(=O)[C@H](Cc2ccccc2)N(C)C1=O [pd046] ([Sar][NMeF]A[NMeL][NMeT][NMeL][NMeA][Abu][NMeF]VPA[NMeV]D-Piperidide; lactam N-14) landed at 0.06
